- Tested on: Enterococcus faecalis
- TEST_DETAILS: Antibacterial activity against clinical isolates of Enterococcus faecalis GMCH/B0091 after overnight incubation by microdilution broth assay
- Type: functional
Square brackets hold non-standard residues; d marks the D form. Peptide text beside a SMILES is read from it. * marks the point of attachment. Stearoyl = CCCCCCCCCCCCCCCCCC(=O)*; Myristoyl = CCCCCCCCCCCCCC(=O)*; Orn = NCCC[CH](N)C(=O)O
Friendly reminder: MIC below 2 µg/mL is YES, at or above is NO.

Completed entries (count: 5):
INSERT INTO results (compound, target, label_value) VALUES
  ('CCCCCCCCCCCCCCCCCC(=O)NC(CCCN)C(=O)NC(CCCN)C(=O)NC(CCCN)C(=O)NC(CCCN)C(=O)NC(CCCN)C(N)=O (configuration not stated) (Stearoyl-[Orn][Orn][Orn][Orn][Orn]-NH2; configuration not given here)', 'Enterococcus faecalis', 'NO'),
  ('CCCCCCCCCCCCCCCC(=O)NC(CCCN)C(=O)NC(CCCN)C(=O)NC(CCCN)C(N)=O (configuration not stated)', 'Enterococcus faecalis', 'NO'),
  ('CCCCCCCCCCCCCC(=O)NC(CCCN)C(=O)NC(CCCN)C(=O)NC(CCCN)C(=O)NC(CCCN)C(=O)NC(CCCN)C(N)=O (configuration not stated) (Myristoyl-[Orn][Orn][Orn][Orn][Orn]-NH2; configuration not given here)', 'Enterococcus faecalis', 'YES'),
  ('CCCCCCCCCCCCCCCCCC(=O)NC(CCCN)C(=O)NC(CCCN)C(=O)NC(CCCN)C(N)=O (configuration not stated)', 'Enterococcus faecalis', 'NO'),
  ('CCCCCCCCCCCCCCCCCC(=O)NC(CCCN)C(=O)NC(CCCN)C(=O)NC(CCCN)C(=O)NC(CCCN)C(N)=O (configuration not stated) (Stearoyl-[Orn][Orn][Orn][Orn]-NH2; configuration not given here)', 'Enterococcus faecalis', 'NO');

Shift focus to the following entry.
Input line: In plain terms, does CCCCCCCCCC(=O)N[C@@H](Cc1c[nH]c2ccccc12)C(=O)N[C@H](CC(N)=O)C(=O)N[C@@H](CC(=O)O)C(=O)N[C@@H]1C(=O)NCC(=O)N[C@@H](CCCN)C(=O)N[C@@H](CC(=O)O)C(=O)N[C@H](C)C(=O)N[C@@H](CC(=O)O)C(=O)NCC(=O)N[C@H](CO)C(=O)N[C@@H]([C@H](C)CC(=O)O)C(=O)N[C@@H](CC(=O)c2ccccc2N)C(=O)O[C@@H]1C come in under 2 µg/mL for MIC?
Output line: YES

----------
Form field: MIC (one value per entry).
- Test system: Staphylococcus epidermidis
- TEST_DETAILS: Antibacterial activity against clinical isolates of Staphylococcus epidermidis GMCH/B0057 after overnight incubation by microdilution broth assay
- Assay type: functional
Square brackets hold non-standard residues; d marks the D form. Peptide text beside a SMILES is read from it. * marks the point of attachment. Stearoyl = CCCCCCCCCCCCCCCCCC(=O)*; Palmitoyl = CCCCCCCCCCCCCCCC(=O)*; Myristoyl = CCCCCCCCCCCCCC(=O)*; Orn = NCCC[CH](N)C(=O)O
Write down the numeric answer in µg/mL and omit the unit.

Use the examples below as a reference point.
INSERT INTO measurements (compound, readout_number) VALUES
  ('CCCCCCCCCCCCCCCC(=O)NC(CCCN)C(=O)NC(CCCN)C(=O)NC(CCCN)C(N)=O (stereo not given)', 4),
  ('CCCCCCCCCCCCCC(=O)NC(CCCN)C(=O)NC(CCCN)C(=O)NC(CCCN)C(=O)NC(CCCN)C(N)=O (stereo not given) (Myristoyl-[Orn][Orn][Orn][Orn]-NH2; configuration not given here)', 3.5),
  ('CCCCCCCCCCCCCCCC(=O)NC(CCCN)C(=O)NC(CCCN)C(=O)NC(CCCN)C(=O)NC(CCCN)C(N)=O (stereo not given) (Palmitoyl-[Orn][Orn][Orn][Orn]-NH2; configuration not given here)', 2.5);

Input line: Reported MIC, compound CCCCCCCCCCCCCCCC(=O)NC(CCCN)C(=O)NC(CCCN)C(=O)NC(CCCN)C(=O)NC(CCCN)C(=O)NC(CCCN)C(N)=O (stereo not given) (Palmitoyl-[Orn][Orn][Orn][Orn][Orn]-NH2; configuration not given here) : ____
Output line: 3.1

Input line: What would you report for CCCCCCCCCCCCCCCCCC(=O)NC(CCCN)C(=O)NC(CCCN)C(=O)NC(CCCN)C(=O)NC(CCCN)C(=O)NC(CCCN)C(N)=O (stereo not given) (Stearoyl-[Orn][Orn][Orn][Orn][Orn]-NH2; configuration not given here) ?
Output line: 4.5
